# Tested on: barnyardgrass
# Experiment: Test B flooded paddy test
# Assay type: in vivo, Echinochloa crus-galli
# Run parameters: 1000 g ai/ha, visual rating, scale 0 to 100 (0 no effect, 100 complete control), 13 to 15 days

Chemical structure | Barnyardgrass plant response rating
CCOC(=O)c1ccc(F)c(NC(=O)c2cc(CC(C)C)nn2CC)c1 | 0
CCn1nc(C(C)(C)C)cc1C(=O)Nc1cccc(C(=O)N(C)CC#N)n1 | 70
C=CCn1nc(C(C)(C)C)cc1C(=O)Nc1cccc(C(C)=NO)c1 | 70
CCn1nc(C(C)(C)C)cc1C(=O)Nc1nccc(OC)n1 | 0

###

# Tested on: large crabgrass
# Experiment: Test B pre-/postemergence herbicide test
# Format: in vivo, Digitaria sanguinalis
# Run parameters: Postemergence, 500 g ai/ha; visual rating after 13 to 15 days, scale 0 (no effect) to 100 (complete control)

Chemical structure | Subject of test | Plant response rating, Crabgrass, Large
CCn1nc(C(C)(C)C)cc1C(=O)Nc1cccc(C(C)=NO)c1 | large crabgrass | 70
CCn1nc(C(C)(C)C)cc1C(=O)Nc1cccc(C(=O)OC(C)C)c1C | large crabgrass | 10
CCn1nc(C(C)(C)C)cc1C(=O)Nc1ccc(C)c(C(=O)OC(C)C)c1 | large crabgrass | 0

###

# System: large crabgrass
# Experiment: Test B pre-/postemergence herbicide test
# Format: in vivo, Digitaria sanguinalis
# Run parameters: 500 g ai/ha; visual rating 0-100, 0 no effect, 100 complete control; preemergence

Chemical structure | Plant response rating, Crabgrass, Large
C=CCOC(=O)c1cccc(NC(=O)c2cc(C(C)(C)C)nn2CC)c1C | 20
CC(=O)c1cccc(NC(=O)c2cn(C(C)C)nc2C)c1 | 0
CCn1nc(C(C)(C)C)cc1C(=O)Nc1cccc(C(=O)N(C)CC#N)n1 | 100

###

# Tested on: giant foxtail
# Experiment: Test B pre-/postemergence herbicide test
# Format: in vivo, Setaria faberi
# Run parameters: postemergence, 500 g ai/ha; scale 0 to 100, 0 is no effect, 100 is complete control
# Protocol: […] At the same time, plants selected from these crop and weed species and also blackgrass (Alopecurus myosuroides Huds.), wheat (Triticum aestivum L.) and wild oat (Avena fatua L.) were treated with postemergence applications of test chemicals formulated in the same manner. […] Treated plants and controls were maintained in a greenhouse for 13 to 15 days, after which time all species were compared to controls and visually evaluated. […]

Compound | Foxtail, Giant plant response rating
C#CCNC(=O)c1cccc(NC(=O)c2nn(C(C)(C)C)nc2CC)c1 [Compound 380] | 20
CCn1nc(C(C)(C)C)cc1C(=O)Nc1cc(C(=O)N2CCOCC2)ccc1F [Compound 243] | 20
C#CCNC(=O)c1cccc(NC(=O)c2cc(C(C)(C)C)nn2C)n1 [Compound 316] | 20

###

# System: ducksalad
# Experiment: Test C flooded paddy test
# Type: in vivo, Heteranthera limosa
# Run parameters: 125 g ai/ha, scale 0 to 100 (0 no effect, 100 complete control)

Molecule | Ducksalad plant response rating
CCC1=NN(C(C)(C)C)CC1C(=O)Nc1cc(C(=O)N2CC=CC2)ccc1F (racemic) [Compound 340] | 70
CCc1nc(C(C)(C)C)sc1C(=O)Nc1cccc(C(=O)NCC2CC2)n1 [Compound 215] | 40
CCc1nn(C(C)(C)CC)nc1C(=O)Nc1cccc(C(=O)N2CC=CC2)c1 [Compound 369] | 80
CCNC(=O)c1cccc(NC(=O)c2nn(C(C)C)nc2C)c1 [Compound 405] | 0
